# tested.on: CYP3A4 (Homo sapiens, UniProt P08684)
# Construct: from tissue; host or cells: human liver microsomes (pooled in the time-dependent assay)
# Sequence (P08684 whole entry): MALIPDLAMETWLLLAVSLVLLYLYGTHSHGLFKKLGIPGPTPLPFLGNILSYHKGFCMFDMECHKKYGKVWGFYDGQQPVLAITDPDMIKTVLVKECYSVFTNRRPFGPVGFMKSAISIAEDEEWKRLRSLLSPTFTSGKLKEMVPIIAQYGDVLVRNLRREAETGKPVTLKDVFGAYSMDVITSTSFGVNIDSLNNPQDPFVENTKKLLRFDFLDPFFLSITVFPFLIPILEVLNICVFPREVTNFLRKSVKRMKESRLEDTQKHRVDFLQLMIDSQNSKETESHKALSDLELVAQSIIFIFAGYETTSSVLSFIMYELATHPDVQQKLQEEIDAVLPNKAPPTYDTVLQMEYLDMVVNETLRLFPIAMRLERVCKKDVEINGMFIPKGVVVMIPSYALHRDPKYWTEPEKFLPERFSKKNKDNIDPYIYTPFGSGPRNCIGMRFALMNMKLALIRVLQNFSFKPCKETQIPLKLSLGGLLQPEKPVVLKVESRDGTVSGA
# experimental.details: direct inhibition of CYP450 in human liver microsomes (midazolam and testosterone probes)
# Format: in vitro ADME
# experimental.context: 10 uM, midazolam probe, read-out: CYP3A4-M T0 % activity
Give activity at 10 µM for every item shown.
Give a bare numeral; the unit % is implied.

// [2H]c1nc([2H])n(-c2nc(C)cc(C(=O)N[C@H]3CC[C@H](OCCOC)CC3)n2)c1[2H] [Comparator Compound A, reference compound] : activity at 10 µM value = 99

Record CO[C@H]1CC[C@H](NC(=O)c2cc(C3CCOCC3)nc(-c3cncn3C)n2)CC1 , field activity at 10 µM: 92

// field: activity at 10 µM; key: CO[C@H]1CC[C@H](NC(=O)c2cc(C3CCC(F)(F)CC3)nc(-c3cncn3C)n2)CC1 ; value = 148

Summary for this compound, Cn1cncc1-c1ccnc(C(=O)N[C@H]2CC[C@H](O)CC2)n1 : activity at 10 µM is 97
